# measuredTarget: T1, delNT PTHR1 (human, UniProt Q03431 27-593)
# T1 sequence (looked up): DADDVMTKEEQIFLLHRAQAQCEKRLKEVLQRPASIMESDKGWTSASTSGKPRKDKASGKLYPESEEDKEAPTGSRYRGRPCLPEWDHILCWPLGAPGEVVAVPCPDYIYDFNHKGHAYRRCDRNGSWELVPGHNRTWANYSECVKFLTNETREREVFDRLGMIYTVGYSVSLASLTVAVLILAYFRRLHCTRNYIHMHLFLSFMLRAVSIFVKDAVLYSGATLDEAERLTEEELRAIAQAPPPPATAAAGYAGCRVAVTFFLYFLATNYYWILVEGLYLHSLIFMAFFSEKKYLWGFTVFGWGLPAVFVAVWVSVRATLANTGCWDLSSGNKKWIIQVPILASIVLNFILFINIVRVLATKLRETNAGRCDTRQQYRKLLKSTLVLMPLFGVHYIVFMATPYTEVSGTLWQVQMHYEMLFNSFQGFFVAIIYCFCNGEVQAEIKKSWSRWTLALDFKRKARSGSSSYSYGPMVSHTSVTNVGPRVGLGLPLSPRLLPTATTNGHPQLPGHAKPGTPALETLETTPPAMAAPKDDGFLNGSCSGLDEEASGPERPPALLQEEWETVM
# protocolText: cell-based or functional assay
Non-standard residues stand in square brackets, D forms with d. No end group written: not given here. ACPC = 2-aminocyclopentane carboxylic acid; β3hM = CSCC[C@H](N)CC(=O)O
measuredEndpoint: cAMP EC50 (µM)
Supply the numeric figure in µM, leaving out any unit text.

// known answers, use as guide
1) SVSEIQ[ACPC]MHNLGKHLNSMERVEWLRKKLQDVHNF-NH2 [ACPC(7) PTH(1-34)] ... 4.6
2) SVSEIQL[β3hM]HNLGKHLNSMERVEWLRKKLQDVHNF-NH2 [β3Met(8) PTH(1-34)] ... 20
3) SVSEIQLMZNLGKHLNSMERVEWLRKKLQDVHNF (APC (Z) at 9; C-terminal amide) [APC(9) PTH(1-34)] ... 5.4
4) S[ACPC]SEIQLMHNLGKHLNSMERVEWLRKKLQDVHNF-NH2 [ACPC(2) PTH(1-34)] ... 11
5) [ACPC]VSEIQLMHNLGKHLNSMERVEWLRKKLQDVHNF-NH2 [ACPC(1) PTH(1-34)] ... 0.5

Next:
Quick one: cAMP EC50 for SVSE[ACPC]QLMHNLGKHLNSMERVEWLRKKLQDVHNF-NH2 [ACPC(5) PTH(1-34)] ? 4.1
